Measured values drawn from paper PMC6212790 for this set.

Biological target: GST-Rok-C97-191 (Bacillus subtilis subsp. subtilis str. …, UniProt O34857 97-191)
Sequence: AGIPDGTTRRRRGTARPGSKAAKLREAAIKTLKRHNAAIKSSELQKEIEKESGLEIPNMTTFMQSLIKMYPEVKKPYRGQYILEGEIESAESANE
Experiment: protein binding microarray; high values mean tight binding
Conditions: protein: recombinant; tags: GST (pTH5325, pDEST15-Magic modified); dsDNA, one strand shown
In all, about 33,000 sequences were measured (“e-score”: median about -0.038, highest 2% from about 0.33 on). This excerpt belongs to a sample that is enriched for the highest values.
Outcome label depends on binding signal relative to 0.3 E-score: at/above gives fulfilled, below gives not fulfilled.

Answer whether binding signal of AAATACAC is greater than or equal to 0.3 E-score.
not fulfilled

Answer whether binding signal of AGCCGTTA is greater than or equal to 0.3 E-score.
not fulfilled

Answer whether binding signal of ATACTACA is greater than or equal to 0.3 E-score.
fulfilled

Answer whether binding signal of CTACTACA is greater than or equal to 0.3 E-score.
fulfilled

* * *

Biological target: GST-Rok-C97-191 (Bacillus subtilis subsp. subtilis str. …, UniProt O34857 97-191)
Sequence: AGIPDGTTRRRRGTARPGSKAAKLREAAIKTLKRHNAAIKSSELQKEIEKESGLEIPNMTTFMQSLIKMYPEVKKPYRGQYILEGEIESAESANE
Test: protein binding microarray; Rok is a gene silencer of Bacillus subtilis; high values mean tight binding
Conditions: protein: recombinant; tags: GST (pTH5325, pDEST15-Magic modified); dsDNA, one strand shown
Whole data set: some 33,000 sequences, median “e-score” near -0.038, cut for the highest 2% near 0.33. For the sample, the highest values were picked, then their nearest neighbours and some sequences at random.
Hi there, I'd appreciate the recorded binding signal for every entry that follows.
Please state the figure in E-score; there is no need to write the unit.

What value of binding signal has been reported for the following sequence? GATAGTAA
0.367

What value of binding signal has been reported for the following sequence? GGTATAGA
0.221

What value of binding signal has been reported for the following sequence? TATAGTCA
0.119

What value of binding signal has been reported for the following sequence? GAAGCTAC
0.309

What value of binding signal has been reported for the following sequence? CCAAATAC
0.137

What value of binding signal has been reported for the following sequence? CGTAGCCC
-0.128

What value of binding signal has been reported for the following sequence? GTAGCTAA
0.346

What value of binding signal has been reported for the following sequence? GTCGGAAC
0.0505

What value of binding signal has been reported for the following sequence? CATAGTAA
0.272

What value of binding signal has been reported for the following sequence? ATTACAGC
0.215

What value of binding signal has been reported for the following sequence? TTAGCTAA
0.263

What value of binding signal has been reported for the following sequence? GATAGTAC
0.184

What value of binding signal has been reported for the following sequence? ACTGGGCT
-0.135

What value of binding signal has been reported for the following sequence? AGGTAGAA
0.433

What value of binding signal has been reported for the following sequence? CGTACGTA
0.05

What value of binding signal has been reported for the following sequence? GACCGGAA
-0.0227

What value of binding signal has been reported for the following sequence? AGGTAGAC
0.093

What value of binding signal has been reported for the following sequence? ATAATAAT
0.31

What value of binding signal has been reported for the following sequence? ATAGCTAT
0.402

What value of binding signal has been reported for the following sequence? ACAGTCCC
-0.126

What value of binding signal has been reported for the following sequence? CTGTAGAA
0.258

What value of binding signal has been reported for the following sequence? ACTGACAT
-0.113

What value of binding signal has been reported for the following sequence? ATAATAAG
0.331

What value of binding signal has been reported for the following sequence? CCCAACTA
0.257

What value of binding signal has been reported for the following sequence? CTAATAAG
0.127

What value of binding signal has been reported for the following sequence? ACTATTGC
0.313

What value of binding signal has been reported for the following sequence? AGTATATA
0.428

What value of binding signal has been reported for the following sequence? GTACTACA
0.296

What value of binding signal has been reported for the following sequence? GGTATAAC
0.266

What value of binding signal has been reported for the following sequence? CGAGCAAG
-0.0658

What value of binding signal has been reported for the following sequence? CTAGTCGA
0.131

What value of binding signal has been reported for the following sequence? AATTGTTA
0.234

What value of binding signal has been reported for the following sequence? TACGACAA
0.151

What value of binding signal has been reported for the following sequence? CTCTACAA
0.00826

What value of binding signal has been reported for the following sequence? ATAGCTAC
0.31

What value of binding signal has been reported for the following sequence? GGTCCTTA
0.0575

What value of binding signal has been reported for the following sequence? AGAGAATG
0.0921

What value of binding signal has been reported for the following sequence? ATAGCTAG
0.271

What value of binding signal has been reported for the following sequence? CTAGCTAC
0.163
